# tested_system: GST-Rok (full length) (Bacillus subtilis subsp. subtilis str. …, UniProt O34857 1-191)
# Sequence: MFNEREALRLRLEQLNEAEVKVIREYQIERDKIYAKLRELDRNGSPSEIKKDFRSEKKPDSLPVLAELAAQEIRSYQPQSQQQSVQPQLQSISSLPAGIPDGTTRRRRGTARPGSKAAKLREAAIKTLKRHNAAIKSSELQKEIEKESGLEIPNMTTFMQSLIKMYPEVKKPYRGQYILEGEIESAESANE
# test_name: protein binding microarray; high values mean tight binding
# experimental_conditions: protein: recombinant; tags: GST (pTH5325, pDEST15-Magic modified); dsDNA, one strand shown
The full ranking holds about 33,000 sequences; the median of “e-score” is about -0.037, and the highest 2% start at about 0.34. For the sample, the highest values were picked, then their nearest neighbours and some sequences at random.
Below: a set of entries, each annotated with reported binding signal.
The response must be a number in E-score with no trailing unit.

Example sequences with recorded binding signal:
{"seq_text": "CCCAGCGC", "tested_system": "GST-Rok (full length) (Bacillus subtilis subsp. subtilis str. …, UniProt O34857 1-191)", "binding signal (E-score)": -0.157}
{"seq_text": "CACGCTGA", "tested_system": "GST-Rok (full length) (Bacillus subtilis subsp. subtilis str. …, UniProt O34857 1-191)", "binding signal (E-score)": -0.189}
{"seq_text": "ACCGGCAA", "tested_system": "GST-Rok (full length) (Bacillus subtilis subsp. subtilis str. …, UniProt O34857 1-191)", "binding signal (E-score)": -0.0643}
{"seq_text": "ATTGGTAG", "tested_system": "GST-Rok (full length) (Bacillus subtilis subsp. subtilis str. …, UniProt O34857 1-191)", "binding signal (E-score)": 0.371}
{"seq_text": "CAAATATC", "tested_system": "GST-Rok (full length) (Bacillus subtilis subsp. subtilis str. …, UniProt O34857 1-191)", "binding signal (E-score)": 0.285}
{"seq_text": "CTAAGGCC", "tested_system": "GST-Rok (full length) (Bacillus subtilis subsp. subtilis str. …, UniProt O34857 1-191)", "binding signal (E-score)": -0.158}
{"seq_text": "AGCTGCAC", "tested_system": "GST-Rok (full length) (Bacillus subtilis subsp. subtilis str. …, UniProt O34857 1-191)", "binding signal (E-score)": 0.104}
{"seq_text": "ATCTACTC", "tested_system": "GST-Rok (full length) (Bacillus subtilis subsp. subtilis str. …, UniProt O34857 1-191)", "binding signal (E-score)": 0.251}

sequence `ATCTACTA` , binding signal observed: 0.446

sequence `GGTCGTAA` , binding signal observed: 0.0357

sequence `AATATACC` , binding signal observed: 0.394

sequence `CAAATATA` , binding signal observed: 0.345

sequence `ATTGGTAA` , binding signal observed: 0.265

sequence `ACAAACTA` , binding signal observed: 0.383

sequence `AGAGCTAG` , binding signal observed: -0.0248

sequence `AGGTAGGC` , binding signal observed: -0.115

sequence `ATCTACGG` , binding signal observed: 0.158

* * *

# tested_system: GST-Rok (full length) (Bacillus subtilis subsp. subtilis str. …, UniProt O34857 1-191)
# Sequence: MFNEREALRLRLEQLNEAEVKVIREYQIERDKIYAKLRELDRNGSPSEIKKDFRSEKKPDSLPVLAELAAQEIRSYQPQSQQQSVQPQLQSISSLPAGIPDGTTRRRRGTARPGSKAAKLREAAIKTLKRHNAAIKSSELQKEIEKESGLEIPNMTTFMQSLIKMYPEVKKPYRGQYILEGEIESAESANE
# test_name: protein binding microarray; high values mean tight binding
# experimental_conditions: protein: recombinant; tags: GST (pTH5325, pDEST15-Magic modified); dsDNA, one strand shown
Over roughly 33,000 sequences, “e-score” has its median near -0.037; the highest 2% begin near 0.34. The full list was thinned out, with the highest values kept by preference.
Below: a set of entries, each annotated with reported binding signal.
The response must be a number in E-score with no trailing unit.

Example sequences with recorded binding signal:
{"seq_text": "TACGACCA", "measurement_units": "E-score", "binding signal": -0.0634}
{"seq_text": "CCAATCTA", "measurement_units": "E-score", "binding signal": 0.283}
{"seq_text": "ATGATATG", "measurement_units": "E-score", "binding signal": 0.172}
{"seq_text": "ATAGTTGG", "measurement_units": "E-score", "binding signal": 0.0271}
{"seq_text": "CTAGTGTC", "measurement_units": "E-score", "binding signal": 0.0749}
{"seq_text": "CCTATTAC", "measurement_units": "E-score", "binding signal": 0.285}
{"seq_text": "ATCTAATA", "measurement_units": "E-score", "binding signal": 0.313}
{"seq_text": "ACGTTAAG", "measurement_units": "E-score", "binding signal": -0.0138}
{"seq_text": "GCGCTTCA", "measurement_units": "E-score", "binding signal": -0.0884}
{"seq_text": "TGCATTAA", "measurement_units": "E-score", "binding signal": 0.25}

Consider the record given below.
Reported GST-Rok (full length) (Bacillus subtilis subsp. subtilis str. …, UniProt O34857 1-191) binding signal for item `TAGCTATA` was 0.346

* * *

# tested_system: GST-Rok (full length) (Bacillus subtilis subsp. subtilis str. …, UniProt O34857 1-191)
# Sequence: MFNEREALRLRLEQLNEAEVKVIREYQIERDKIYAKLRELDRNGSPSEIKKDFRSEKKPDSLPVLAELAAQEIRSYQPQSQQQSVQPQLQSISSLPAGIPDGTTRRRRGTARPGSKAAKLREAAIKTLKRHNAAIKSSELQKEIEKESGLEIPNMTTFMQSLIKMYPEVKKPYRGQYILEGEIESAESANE
# test_name: protein binding microarray; high values mean tight binding
# experimental_conditions: protein: recombinant; tags: GST (pTH5325, pDEST15-Magic modified); dsDNA, one strand shown
The full ranking holds about 33,000 sequences; the median of “e-score” is about -0.037, and the highest 2% start at about 0.34. The list comes from a sample in which the highest values are over-represented; it also holds close analogues and randomly drawn sequences.
readout_kind: binding signal

Reported GST-Rok (full length) (Bacillus subtilis subsp. subtilis str. …, UniProt O34857 1-191) binding signal for item `GAAATGCA` was -0.095 E-score

Reported GST-Rok (full length) (Bacillus subtilis subsp. subtilis str. …, UniProt O34857 1-191) binding signal for item `AATATTGG` was 0.103 E-score

* * *

# tested_system: GST-Rok (full length) (Bacillus subtilis subsp. subtilis str. …, UniProt O34857 1-191)
# Sequence: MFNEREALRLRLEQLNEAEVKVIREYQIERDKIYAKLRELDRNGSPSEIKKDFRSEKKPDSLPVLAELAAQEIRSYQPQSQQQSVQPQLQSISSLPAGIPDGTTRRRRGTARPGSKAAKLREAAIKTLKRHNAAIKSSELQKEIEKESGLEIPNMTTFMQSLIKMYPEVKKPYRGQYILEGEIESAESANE
# test_name: protein binding microarray; high values mean tight binding
# experimental_conditions: protein: recombinant; tags: GST (pTH5325, pDEST15-Magic modified); dsDNA, one strand shown
In all, about 33,000 sequences were measured (“e-score”: median about -0.037, highest 2% from about 0.34 on). The full list was thinned out, with the highest values kept by preference.
Checkbox rule: binding signal lower than 0.2 E-score = True; binding signal not lower than 0.2 E-score = False.

Below are worked cases with known answers.
{"seq_text": "GTCATCTA", "label_class": "True"}
{"seq_text": "AATGTACG", "label_class": "True"}
{"seq_text": "GAGGTAGA", "label_class": "False"}
{"seq_text": "AAGGTAGA", "label_class": "False"}

IN: Determine whether this sequence shows binding signal lower than 0.2 E-score (ties excluded): `CTCACAGA`
OUT: True

IN: Determine whether this sequence shows binding signal lower than 0.2 E-score (ties excluded): `AATGTACT`
OUT: False

IN: Determine whether this sequence shows binding signal lower than 0.2 E-score (ties excluded): `AATGTATC`
OUT: False

IN: Determine whether this sequence shows binding signal lower than 0.2 E-score (ties excluded): `AGTCTGAC`
OUT: True

IN: Determine whether this sequence shows binding signal lower than 0.2 E-score (ties excluded): `AAAGTACA`
OUT: False

IN: Determine whether this sequence shows binding signal lower than 0.2 E-score (ties excluded): `TAGGTAGA`
OUT: False

IN: Determine whether this sequence shows binding signal lower than 0.2 E-score (ties excluded): `CAAGTACA`
OUT: True

* * *

# tested_system: GST-Rok (full length) (Bacillus subtilis subsp. subtilis str. …, UniProt O34857 1-191)
# Sequence: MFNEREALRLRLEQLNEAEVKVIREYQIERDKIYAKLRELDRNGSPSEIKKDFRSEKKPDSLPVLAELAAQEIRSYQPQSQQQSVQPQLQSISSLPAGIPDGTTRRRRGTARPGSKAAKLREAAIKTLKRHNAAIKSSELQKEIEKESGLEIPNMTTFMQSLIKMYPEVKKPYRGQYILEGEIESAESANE
# test_name: protein binding microarray; Rok is a gene silencer of Bacillus subtilis; high values mean tight binding
# experimental_conditions: protein: recombinant; tags: GST (pTH5325, pDEST15-Magic modified); dsDNA, one strand shown
Whole data set: some 33,000 sequences, median “e-score” near -0.037, cut for the highest 2% near 0.34. The sample as a whole holds a higher share of the highest values than the screen did.
readout_kind: binding signal (E-score)
The response must be a number in E-score with no trailing unit.

{"seq_text": "GTCTAGCA", "binding signal [E-score]": -0.0242}
{"seq_text": "ACGGAGCG", "binding signal [E-score]": -0.13}
{"seq_text": "AATAGAAA", "binding signal [E-score]": 0.371}

Consider the record given below.
sequence `GTAACTCA` , binding signal observed: 0.22
